Data origin, for the record: PubChem BioAssay AID651650

Target: Neuropilin-1 (Homo sapiens) (UniProt O14786)
Sequence (O14786 whole entry, looked up): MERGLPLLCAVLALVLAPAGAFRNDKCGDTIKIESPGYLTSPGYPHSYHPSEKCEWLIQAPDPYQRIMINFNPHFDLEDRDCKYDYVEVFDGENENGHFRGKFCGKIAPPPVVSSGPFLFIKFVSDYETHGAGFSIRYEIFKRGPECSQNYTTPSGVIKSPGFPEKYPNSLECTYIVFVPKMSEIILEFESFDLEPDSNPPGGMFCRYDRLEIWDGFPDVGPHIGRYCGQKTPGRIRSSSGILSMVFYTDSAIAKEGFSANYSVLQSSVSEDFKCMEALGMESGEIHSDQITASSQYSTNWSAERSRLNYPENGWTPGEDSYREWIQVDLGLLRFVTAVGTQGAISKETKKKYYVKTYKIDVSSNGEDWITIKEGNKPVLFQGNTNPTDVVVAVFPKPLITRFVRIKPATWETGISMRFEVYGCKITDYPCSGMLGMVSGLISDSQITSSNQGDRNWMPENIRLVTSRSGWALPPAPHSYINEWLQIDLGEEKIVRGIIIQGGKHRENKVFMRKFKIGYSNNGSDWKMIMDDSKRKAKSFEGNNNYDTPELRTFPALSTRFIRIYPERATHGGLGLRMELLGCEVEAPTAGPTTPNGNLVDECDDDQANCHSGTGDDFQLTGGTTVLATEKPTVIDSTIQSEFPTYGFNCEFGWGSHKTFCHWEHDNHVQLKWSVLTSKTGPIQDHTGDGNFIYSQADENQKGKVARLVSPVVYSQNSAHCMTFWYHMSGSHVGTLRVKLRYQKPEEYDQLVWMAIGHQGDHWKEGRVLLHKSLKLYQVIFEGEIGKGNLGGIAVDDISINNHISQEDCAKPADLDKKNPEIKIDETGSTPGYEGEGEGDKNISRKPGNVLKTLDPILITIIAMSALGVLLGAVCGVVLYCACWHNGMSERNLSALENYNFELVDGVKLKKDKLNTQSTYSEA
Test: NRP-1 b1b2 CendR peptide binding inhibitors, dose response, biochemical, FP and AlphaScreen panel (AID 651650)
Conditions: NRP-1 b1b2 / RPARPAR peptide binding, FP or AlphaScreen; AlphaScreen, mean of runs
Activity calls are given as the source filed them.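 The calls were made as follows: active = mean IC50 below 20 µM in each of the two panels, so potent in both; inactive = the rest.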
Each record here notes measured IC50.

O=C(NCCN1CCOCC1)c1cc(-c2ccc(F)cc2)on1 > 100 µM (inactive)
O=C(Cc1ccccc1Cl)N1CCOCC1 > 100 µM (inactive)

Next item in the queue.
### Prompt What value of IC50 has been recorded for this entry: `NC(N)=NCCC[C@H](NC(=O)OCc1ccccc1)C(=O)O`
### Response > 100 µM (inactive)
